Reference source for all entries: patent US20240084003A1

- STUDY_SYSTEM: T1, monkey CD22 protein (ACROBiosystems, catalog number SI2-R52Ha) (monkey, UniProt F6W485 20-688)
- T1 construct: commercial protein; also called monkey CD22-ECD; monkey CD22-ECD-His
- T1 sequence: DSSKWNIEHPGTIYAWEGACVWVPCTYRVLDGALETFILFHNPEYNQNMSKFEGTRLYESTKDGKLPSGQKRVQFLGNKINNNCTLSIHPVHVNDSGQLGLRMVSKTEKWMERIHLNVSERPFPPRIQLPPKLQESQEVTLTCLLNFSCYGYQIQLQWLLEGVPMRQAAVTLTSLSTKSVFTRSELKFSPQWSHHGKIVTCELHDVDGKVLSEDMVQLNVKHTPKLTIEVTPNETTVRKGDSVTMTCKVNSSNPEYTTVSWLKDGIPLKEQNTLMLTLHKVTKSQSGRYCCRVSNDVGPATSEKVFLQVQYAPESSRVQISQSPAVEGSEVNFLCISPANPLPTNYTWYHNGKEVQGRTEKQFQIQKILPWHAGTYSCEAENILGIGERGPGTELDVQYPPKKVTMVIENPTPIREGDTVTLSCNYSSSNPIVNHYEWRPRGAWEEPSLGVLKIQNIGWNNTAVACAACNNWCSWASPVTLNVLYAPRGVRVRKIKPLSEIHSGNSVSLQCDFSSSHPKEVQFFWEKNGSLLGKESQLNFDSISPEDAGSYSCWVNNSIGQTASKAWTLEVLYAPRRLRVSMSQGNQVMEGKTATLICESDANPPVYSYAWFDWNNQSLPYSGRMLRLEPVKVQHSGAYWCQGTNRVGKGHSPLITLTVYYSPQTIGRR
- EXPERIMENT: ELISA, coated monkey CD22 protein, antibody 0.1 nM
MEASURED_QUANTITY: OD450 (OD450)
Give bare numbers, in OD450.

// worked examples, OD450 included
# binder F2.99.1 (antibody, human IgG1, lambda, V domains shown, human-murine chimeric IgG1 lambda; VL name legible) VH: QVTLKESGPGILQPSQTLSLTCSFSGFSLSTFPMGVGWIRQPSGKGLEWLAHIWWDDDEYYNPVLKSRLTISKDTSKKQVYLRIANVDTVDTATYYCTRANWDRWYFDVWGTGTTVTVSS VL: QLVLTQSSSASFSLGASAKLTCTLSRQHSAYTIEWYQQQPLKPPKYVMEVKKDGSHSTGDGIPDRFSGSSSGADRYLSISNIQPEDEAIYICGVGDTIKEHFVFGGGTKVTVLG ; its OD450 = 0.27

// recorded OD450 for F2.42.9 (antibody, human IgG1, lambda, V domains shown, human-murine chimeric IgG1 lambda; VL name legible) VH: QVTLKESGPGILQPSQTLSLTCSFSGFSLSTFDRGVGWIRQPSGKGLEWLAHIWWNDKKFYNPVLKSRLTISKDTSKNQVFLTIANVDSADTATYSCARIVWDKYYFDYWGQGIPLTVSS VL: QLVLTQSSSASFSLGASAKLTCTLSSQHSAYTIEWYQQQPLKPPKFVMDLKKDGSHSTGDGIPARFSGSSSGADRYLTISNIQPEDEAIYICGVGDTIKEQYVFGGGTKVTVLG : 0.95

More entries:
Sure, the documented OD450 for F1.245.2 (antibody, human IgG1, kappa, V domains shown, human-murine chimeric IgG1 kappa) VH: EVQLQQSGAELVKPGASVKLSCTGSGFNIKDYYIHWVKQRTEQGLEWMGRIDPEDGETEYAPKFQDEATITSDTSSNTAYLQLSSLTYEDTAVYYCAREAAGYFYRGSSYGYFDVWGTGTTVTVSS VL: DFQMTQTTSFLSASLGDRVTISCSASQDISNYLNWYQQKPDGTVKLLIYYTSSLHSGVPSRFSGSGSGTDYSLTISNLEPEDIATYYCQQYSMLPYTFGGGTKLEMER is 0.06
